Hi there, I'd appreciate the recorded OD490 for every entry that follows.
- system tested: T1, anti-myc antibody coated on the ELISA plate
- T1 construct: also called a-MYC; a-myc
- assay summary: phage ELISA, anti-myc coated
Give your result in OD as a bare value.

-- ask Given the binder ACVR2B A06 (monoclonal scFv-phage) (scFv, V domains shown, also called A6) VH: VQLVQSGGGLVQPGRSLRLSCTASGFTFGDYAMSWVRQAPGKGLEWVGFIRSKRYDGTAEYAASVKGRFTISRDDSKNSLYLQMNSLRAEDTAVYYCARGHYAMDVWGQGTTVTVSS VL: DIQMTQSPSSLSASVGDRVTITCRASRSISNYLNWYQQKPGKAPKLLIYAASSLQSGVPSRFSGSGSGTDFTLTISSLQPEDFATYYCQQSYDTPFTFGLGNQLEIK , what is its reported OD490?
-- reply 0.704

-- ask Given the binder ACVR2B D07 (monoclonal scFv-phage) (scFv, V domains shown, also called D7) VH: QVQLVQSGAEVKKPGASVKVSCKASGYTFTSYYMHWVRQAPGQGLEWMGIINPSGGSTSYAQKFQGRVTMTRDTSTSTVYMELSSLRSEDTAVYYCAKDQSRGWYSNFDSWGQGTLVTVSS VL: DIQMTQSPSTLSASVGDRVTITCRASQTVSNWLAWYQLKPGKAPKLLIYKASSLESGVPSRFSGTGSETEFTLTISSLQPDDFATYYCQQYHSYPITFGQGTRLEIK , what is its reported OD490?
-- reply 0.241

-- ask Given the binder ACVR2B B11 (monoclonal scFv-phage) (scFv, V domains shown) VH: VQLVESGGGLVQPGRSLRLSCAASGFTFDNHAMHWVRRAPGKGLEWVSGISWNGGTTAYADSVKGRFSIFRDNAEKSLYLQMNSLRAEDTAVYYCARGSSSGRYYFDYWGQGTLVTVSS VL: DIQMTQSPSSVSASVGDRVTITCRASQGISTYLNWYQHQSGKAPKLLIYGAFRLQSGVPSRFSGSGSGTDFTLTISNLQPEDFATYYCQQAKNFPLTFGGGTKVDIK , what is its reported OD490?
-- reply 0.657

-- ask Given the binder ACVR2B C08 (monoclonal scFv-phage) (scFv, V domains shown, also called C8) VH: VQLVESGGGLVQPGGSLRLSCSASGFTFSSYAMHWVRQAPGKGLEYVSAISSNGGSTYYADSVKGRFTISRDNSKNTLYLQMNSLRAEDTAVYYCAKTYGGYGNAFDIWGQGTMITVSS VL: DIQMTQSPSSVSASVGDRVTITCRASQGISRWLAWYQQKPGKAPKLLIYAASNLQSGVPSRFSGSGSGTDFTLTINSLQPEDFATYFCQQGKSFPYTFGPGTKVEIK , what is its reported OD490?
-- reply 1.17

-- ask Given the binder ACVR2B A09 (monoclonal scFv-phage) (scFv, V domains shown, also called A9) VH: VQLVESGGGLVQPGRSLRLSCAASGFTFDSYWMSWVRQAPGKGLEWVANIKYDGSEKHYMDSVKGRFTISRDNAKNSVYLQMNSLRAEDTAVYYCAKGAWLDYWGQGTQVTVSS VL: IQMTQSPSAMSASVGDRVTITCRASQGISNYLAWFQQKPGKVPKRLIYAASSLQSGVPSRFSGSGSGTGFTLTITSLQPEDFATYYCLQHKSYPYTFGQGTKLEIK , what is its reported OD490?
-- reply 1.17

All values here come from patent US20150030595A1.
